test system: ACHN; experiment: AUC of dose-response viability curve, drug alone (arbitrary (AUC of normalised viability)); higher = less growth inhibition; conditions: treatment: drug alone; 5 days
REPORTED PROPERTY: AUC of dose-response viability curve
The answer should be written as a number, with no unit following it.

// worked examples, AUC of dose-response viability curve included
CCN1CCN(c2ccc(Nc3cc(N(C)C(=O)Nc4c(Cl)c(OC)cc(OC)c4Cl)ncn3)cc2)CC1 ... 2.28
C=CC(=O)Nc1cccc(Oc2nc(Nc3ccc(N4CCN(C)CC4)cc3OC)ncc2Cl)c1 ... 2.38
CC1(C)CCC(c2ccc(Cl)cc2)=C(CN2CCN(c3ccc(C(=O)NS(=O)(=O)c4ccc(N[C@H](CCN5CCOCC5)CSc5ccccc5)c(S(=O)(=O)C(F)(F)F)c4)cc3)CC2)C1 ... 2.51
CO[C@H]1CC2CC[C@@H](C)[C@@](O)(O2)C(=O)C(=O)N2CCCC[C@H]2C(=O)O[C@H]([C@H](C)C[C@@H]2CCC(OC(=O)C(C)(CO)CO)[C@H](OC)C2)CC(=O)[C@H](C)/C=C(\C)[C@@H](O)[C@@H](OC)C(=O)[C@H](C)C[C@H](C)/C=C/C=C/C=C/1C (stereo in doubt) ... 2.03

Data request: What AUC of dose-response viability curve value was documented for this compound, `CN(C)CCOc1ccc(-c2nc(-c3ccncc3)c(-c3ccc4c(c3)CC/C4=N/O)[nH]2)cc1` ?
Data returned: 3.51

---

tested on: 769-P; assay: AUC of dose-response viability curve, drug + dasatinib, normalised to DMSO (arbitrary (AUC of normalised viability)); higher = less growth inhibition; conditions: treatment: drug + dasatinib (fixed dose, not stated); 5 days
Reported AUC of dose-response viability curve values follow for various compounds
The answer should be written as a number, with no unit following it.

// worked examples, AUC of dose-response viability curve included
CC(=O)NCC(=O)N1[C@H]2CC[C@H]1c1cc(Nc3ncc(C(F)(F)F)c(NC4CCC4)n3)ccc12 + Cc1nc(Nc2ncc(C(=O)Nc3c(C)cccc3Cl)s2)cc(N2CCN(CCO)CC2)n1 [dasatinib] ... 1.61
COc1ccc(S(=O)(=O)N(C(C)=O)c2ccccc2/C=C/c2cc[n+]([O-])cc2)cc1 [HMN-214] + Cc1nc(Nc2ncc(C(=O)Nc3c(C)cccc3Cl)s2)cc(N2CCN(CCO)CC2)n1 [dasatinib] ... 1.95
CNC(=O)c1c(F)cccc1Nc1nc(Nc2cc3c(cc2OC)CCN3C(=O)CN(C)C)nc2[nH]ccc12 + Cc1nc(Nc2ncc(C(=O)Nc3c(C)cccc3Cl)s2)cc(N2CCN(CCO)CC2)n1 [dasatinib] ... 1.96

Data request: What AUC of dose-response viability curve value was documented for this compound, CC(C)c1cnn2c(NCc3ccccc3)cc(NCCCCCCN)nc12.Cl [BS-181 HCl] + Cc1nc(Nc2ncc(C(=O)Nc3c(C)cccc3Cl)s2)cc(N2CCN(CCO)CC2)n1 [dasatinib] ?
Data returned: 2.55

Data request: What AUC of dose-response viability curve value was documented for this compound, COc1cc2nccc(Oc3ccc(NC(=O)Nc4ccc(F)cc4F)c(F)c3)c2cc1OC [Ki8751] + Cc1nc(Nc2ncc(C(=O)Nc3c(C)cccc3Cl)s2)cc(N2CCN(CCO)CC2)n1 [dasatinib] ?
Data returned: 2.15

Data request: What AUC of dose-response viability curve value was documented for this compound, Cc1cc2c(C(C)C)c(O)c(O)c(C=O)c2c(O)c1-c1c(C)cc2c(C(C)C)c(O)c(O)c(C=O)c2c1O [AT101] + Cc1nc(Nc2ncc(C(=O)Nc3c(C)cccc3Cl)s2)cc(N2CCN(CCO)CC2)n1 [dasatinib] ?
Data returned: 2.6
